Provide the reported pEC50 of each item.
Molecular target: UniProt P11229
Test: mAChR M1 cell-based functional assay (calcium mobilization, potentiation of EC20 acetylcholine response)
Conditions: positive allosteric modulator activity, concentration-dependent increase in EC20 acetylcholine response, CHO-K1 cells; >10 μM estimated where no plateau but >20% increase in ACh response
One number for each entry, as −log10 of the molar value.

Consider the following illustrative entries.
item-smiles: Cn1cc(-c2ccc(CN3Cc4ccc5ncnn5c4C3=O)c(F)c2)cn1
system-tested: UniProt P11229
pEC50: 6.17
//
item-smiles: COc1ccc(-c2cc(F)c(CN3Cc4ccc5nncn5c4C3=O)c(F)c2)cn1
system-tested: UniProt P11229
pEC50: 5.58
//
item-smiles: Cn1cc2c(-c3cc(F)c(CN4Cc5ccc6nccn6c5C4=O)c(F)c3)cccc2n1
system-tested: UniProt P11229
pEC50: 5.85
//
item-smiles: Cn1cc2cc(-c3ccc(F)c(CN4Cc5ccc6nncn6c5C4=O)c3)ccc2n1
system-tested: UniProt P11229
pEC50: 5.88
//
item-smiles: Cc1nnc2ccc3c(n12)C(=O)N(Cc1c(F)cc(-c2cnn(C)c2)cc1F)C3
system-tested: UniProt P11229
pEC50: 5.75
//
item-smiles: Cn1cc(-c2ccc(CN3Cc4ccc5nncn5c4C3=O)c(F)c2)cn1
system-tested: UniProt P11229
pEC50: 6.07
//
item-smiles: Cn1cc2cc(-c3ccc(CN4Cc5ccc6nncn6c5C4=O)c(F)c3)ccc2n1
system-tested: UniProt P11229
pEC50: 6.30
//
item-smiles: Cn1cc(-c2cc(F)c(CN3Cc4ccc5nccn5c4C3=O)c(F)c2)cn1
system-tested: UniProt P11229
pEC50: 5.63

The record that follows has no pEC50 shown yet.
What pEC50 value was documented for this molecule, "O=C1c2c(ccc3nncn23)CN1Cc1ccc(-c2cnc3ccccc3c2)cc1F" ?
5.76

Origin of measurements: patent US10221175B2
